B1: ZNF263 (parent)
chain: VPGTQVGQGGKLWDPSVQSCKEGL

- Variants of: B1
- Experiment: protein stability index of a GFP-peptide fusion (GPS, HEK-293T) (PSI 1-6); higher = more stable;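 also: lentivirally expressed fusions sorted by FACS into six bins by GFP to DsRed ratio, PSI derived from sequencing read proportions per bin multiplied by bin number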
- Run parameters: c terminus: a fixed tail appended
Would you mind labelling by protein stability index? At or over 4 is label 1, under is label 0.

Example results:
L12T
label 1
V6G
label 1
S19C
label 0
S19D
label 1

*Q* Hello, I need to know if G3H has measured protein stability index not below 4. Thanks!
*A* label 1

*Q* Hello, I need to know if V1N has measured protein stability index not below 4. Thanks!
*A* label 1

Values from the supplement of paper PMC10567573
